B1: NECAB1 (parent)
chain: NLDTEELCEYFSQHLGEYENVLAA

Variants of: B1
Method Description: protein stability index of a GFP-peptide fusion (GPS, HEK-293T) (PSI 1-6); higher = more stable;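 also: lentivirally expressed fusions sorted by FACS into six bins by GFP to DsRed ratio, PSI derived from sequencing read proportions per bin multiplied by bin number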
Run Parameters: c terminus: a fixed tail appended
Overview of recorded protein stability index for various variants
Quantity Kind: protein stability index

Chain: NEDTEELCEYFSQHLGEYENVLAA [L2E]
Quantity Kind: protein stability index
Value: 4.97

Chain: NLDTEELCEYFSQHLGEYLNVLAA [E19L]
Quantity Kind: protein stability index
Value: 1.82

Chain: NLFTEELCEYFSQHLGEYENVLAA [D3F]
Quantity Kind: protein stability index
Value: 2.36

Chain: NLDTEELTEYFSQHLGEYENVLAA [C8T]
Quantity Kind: protein stability index
Value: 3.62

Chain: NLDTEELCEYSSQHLGEYENVLAA [F11S]
Quantity Kind: protein stability index
Value: 4.65

Chain: NLDTEELCEYFSQHLMEYENVLAA [G16M]
Quantity Kind: protein stability index
Value: 1.99

Chain: NLDTEELCEYFSQHLGERENVLAA [Y18R]
Quantity Kind: protein stability index
Value: 4.21

Chain: NLDTEELCEYFSQHLGEYENVWAA [L22W]
Quantity Kind: protein stability index
Value: 2.55

Chain: NLDTEELCEYFSQHLGEYEQVLAA [N20Q]
Quantity Kind: protein stability index
Value: 2.14

Chain: NLDTEELCEYFSDHLGEYENVLAA [Q13D]
Quantity Kind: protein stability index
Value: 4.13

Chain: NLDTEELCEYFSQHLGEYENTLAA [V21T]
Quantity Kind: protein stability index
Value: 3.43

Chain: NLSTEELCEYFSQHLGEYENVLAA [D3S]
Quantity Kind: protein stability index
Value: 2.55

Chain: NLDTEELCEYFSQHCGEYENVLAA [L15C]
Quantity Kind: protein stability index
Value: 2.92

Chain: NLDTEELCEYFSQHLGEYENVLEA [A23E]
Quantity Kind: protein stability index
Value: 4.5

Chain: FLDTEELCEYFSQHLGEYENVLAA [N1F]
Quantity Kind: protein stability index
Value: 1.68

Chain: NLDTEELCEYFSQHLGEYENVLRA [A23R]
Quantity Kind: protein stability index
Value: 2.51

Chain: NLDTEELCGYFSQHLGEYENVLAA [E9G]
Quantity Kind: protein stability index
Value: 2.97

Chain: NLDTEELCEYFSQALGEYENVLAA [H14A]
Quantity Kind: protein stability index
Value: 3.31

Chain: NLDTENLCEYFSQHLGEYENVLAA [E6N]
Quantity Kind: protein stability index
Value: 2.42

Chain: NLDTEELCEYFSQHLGEYANVLAA [E19A]
Quantity Kind: protein stability index
Value: 1.66

Chain: NLDTEELCEYKSQHLGEYENVLAA [F11K]
Quantity Kind: protein stability index
Value: 5.08

Chain: NLDTEEKCEYFSQHLGEYENVLAA [L7K]
Quantity Kind: protein stability index
Value: 4.7

Chain: NLDTAELCEYFSQHLGEYENVLAA [E5A]
Quantity Kind: protein stability index
Value: 1.56

Chain: NLDTEELCEYFSYHLGEYENVLAA [Q13Y]
Quantity Kind: protein stability index
Value: 2.2

Chain: NLDTEGLCEYFSQHLGEYENVLAA [E6G]
Quantity Kind: protein stability index
Value: 1.81

Chain: SLDTEELCEYFSQHLGEYENVLAA [N1S]
Quantity Kind: protein stability index
Value: 3.93

Chain: NLDTEELCEYFSQHLGEYENVLNA [A23N]
Quantity Kind: protein stability index
Value: 3.98

Chain: NLDTEELCEYFSQHPGEYENVLAA [L15P]
Quantity Kind: protein stability index
Value: 4.55

Chain: NLDTEELCEYFSQHLGCYENVLAA [E17C]
Quantity Kind: protein stability index
Value: 2.31

Chain: NLDAEELCEYFSQHLGEYENVLAA [T4A]
Quantity Kind: protein stability index
Value: 2.75
